# Tested on: Caco-2
# method: Permeability from basolateral to apical side of the Caco-2 cell membrane
# Assay type: ADME, cell-based
# statedConditions: human
quantityName: LogP app
Please give the numeric answer without any surrounding text.

Data point: COc1nn(CSP(=S)(OC)OC)c(=O)s1 ; LogP app = -4.42

Data point: c1ccc(Nc2ccccc2)cc1 ; LogP app = -4.35

Data point: CC(C)(C)N(NC(=O)c1ccccc1)C(=O)c1ccccc1 ; LogP app = -4.42

Data point: CCNc1nc(Cl)nc(NC(C)C)n1 ; LogP app = -4.45

Data point: CC(C)OP(=O)(OC(C)C)SCc1ccccc1 ; LogP app = -4.35

Data point: CCOP(=S)(OCC)Oc1cc(C)nc(C(C)C)n1 [DIMPYLATE] ; LogP app = -4.42

Data point: COc1cccc(C(=O)NN(C(=O)c2cc(C)cc(C)c2)C(C)(C)C)c1C [METHOXYFENOZIDE] ; LogP app = -4.38

Data point: CCc1ccc(C(=O)NN(C(=O)c2cc(C)cc(C)c2)C(C)(C)C)cc1 [TEBUFENOZIDE] ; LogP app = -4.39
